Reported TGI values for the following molecules.
Test system: UO-31 renal
Experiment: NCI tumour cell line growth inhibition, 48 h

Some solved cases for reference:
> print(dat)
                                   molecule   reading
1  CCCN1CCC=C(c2ccc(Nc3nc(Nc4ccccc4C(N)=O)c4cc[nH]c4n3)c(C)c2)C1   > 25 µM
2  O=C(/C=C/C1C(=O)NC(=O)NC1=O)CC(=O)C(=O)Nc1cc(Cl)c(Cl)cc1Cl  > 100 µM

Now for a further molecule.
query: Give TGI for Nc1ccn(C2OC(C(OC3OC(CO)C(O)C(N)C3O)C(O)C(O)C(O)C(O)CO)C(N)C(O)C2O)c(=O)n1 (stereo not drawn)
result: > 100 µM
